Catalogue of protein stability index readings, one per entry.
experiment: protein stability index of a GFP-peptide fusion (yeast GPS) (PSI 1-4); higher = more stable; sorted into four equal gates, so the index is relative within each strain; conditions: pdr5∆
The response must contain the number and no unit.

// solved cases for protein stability index follow
Sequence string	protein stability index
QGLNILEWLENPSNTPD [FAS1]	3.06
TRLTAYQELAYRATSLD [YML031W/NDC1]	3.01
KVTLNKETQQYELEFDT [BRR2]	3.01
NLLPKKSAKTAKASQEL [HTA2]	3.05
YMLIEEAASSNKSFIVD [ITC1]	2.91
KAELIKPIQNGEIIDIS [ARP9]	3.02
GYFIINGSEKVLIAQER [RPB2]	2.94

What the record says about EHIKEGSEIAISSLGYR [SWI3] : protein stability index is 3.02
